Test system: HOP-62 NSCLC
METHOD_NOTES: NCI-60 one-dose screen, 48 h (100 = growth as untreated, 0 = no growth, -100 = all killed)
PARTICULARS: 10 µM
Procedure: Growth inhibition of the HOP-62 human Non-Small Cell Lung tumor cell line is measured as a screen for anti-cancer activity. Cells are grown in 96 well plates and exposed to the test compound for 48 hours. Compounds are tested at a single concentration, which is 10^-5 M for most compounds. The reported endpoint is percent growth (GI% or GIPRCNT), where numbers from 0 - 100% represent growth inhibition, and numbers from -100% - 0 represent cell death. […]
The panel holds about 83,000 compounds, 20% with a hit somewhere; the sample as a whole holds those more often.
PARAMETER: growth (%)
Give bare numbers, in %.

Sample answers from the record:
MOLECULE: CC(=O)NCC1=C(C)C=C2C(=O)[C@](C)(O)C3(CC3)C(C)=C21
VALUE_REPORTED: -54.4
//
MOLECULE: Cc1ccc(-c2nc3ccc(C(=O)N=Nc4c(O)[nH]c5ccc(Cl)cc45)cc3[nH]2)cc1
VALUE_REPORTED: -73.7
//
MOLECULE: COc1ccc(-c2ccc(SCC(=O)Nc3ccc(C#N)cc3)nn2)cc1
VALUE_REPORTED: 64.8

Please state growth for every molecule in the list that follows.
1. NS(=O)(=O)c1ccc(NC(=O)CSc2ccc(-c3ccc(Cl)cc3)nn2)c(Br)c1
2. CC(=C(c1ccc(OCCCN(C)C)cc1)c1ccc(OCCCN(C)C)cc1)c1ccccc1
3. CN1CCN(c2ccc(Nc3nc(N4CCN(S(=O)(=O)c5ccc(F)cc5)CC4)c4sccc4n3)cc2)CC1

Result:
[2.17, -90.5, -49.6]
